Assay Protocol: Phase 1 single-dose renal impairment study C21010, plasma PK
Assay type: in vivo, human
Test Context: human, plasma, po, 200 mg, AUCinf, geometric LSM, severe chronic renal impairment (CLcr ≥15–29 mL/min), single oral 200 mg dose
Outcome Measure: AUC(0-inf) (ng·h/mL)
Give bare numbers, in ng·h/mL.

Recall and state the measured AUC(0-inf) for CNC(=O)c1ccc2cc([C@@]3(O)CCn4cncc43)ccc2c1 .
17800

====

Assay Protocol: Phase 1 renal impairment study C21010, urine PK
Assay type: in vivo, human
Test Context: human, urine, oral, 200 mg, CLrenal, moderate chronic RI, geometric mean
Outcome Measure: CL renal (mL/min)
Numbers only, in mL/min.

Recall and state the measured CL renal for CNC(=O)c1ccc2cc([C@@]3(O)CCn4cncc43)ccc2c1 .
49.2

====

Assay Protocol: Phase 1 single-dose renal impairment study C21010, plasma PK
Type: in vivo, human
Test Context: human, plasma, po, 200 mg, AUCinf, geometric LSM, moderate chronic renal impairment (CLcr ≥30–59 mL/min), single oral 200 mg dose
Outcome Measure: AUC(0-inf) (ng·h/mL)
Answers are plain numbers, in ng·h/mL.

Recall and state the measured AUC(0-inf) for CNC(=O)c1ccc2cc([C@@]3(O)CCn4cncc43)ccc2c1 .
13100
